Reference for the values: ChEMBL document CHEMBL5214959

# target-entity: UniProt:P0C1R8
# Sequence (P0C1R8 whole entry): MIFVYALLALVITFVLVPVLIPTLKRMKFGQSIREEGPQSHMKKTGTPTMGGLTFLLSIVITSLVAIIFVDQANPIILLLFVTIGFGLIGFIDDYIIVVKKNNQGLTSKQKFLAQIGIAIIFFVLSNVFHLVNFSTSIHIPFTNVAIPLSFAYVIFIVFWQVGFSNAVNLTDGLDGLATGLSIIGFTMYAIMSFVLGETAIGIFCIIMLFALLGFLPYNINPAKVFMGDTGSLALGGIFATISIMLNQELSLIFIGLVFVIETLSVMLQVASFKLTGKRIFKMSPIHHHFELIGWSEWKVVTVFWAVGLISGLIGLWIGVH
Entries whose IC50 is below 2 µM take Met; entries at or above 2 µM take Not met.

{"compound": "CO[C@H]1[C@@H](O)[C@H](n2ccc(=O)[nH]c2=O)O[C@@H]1[C@H](C#N)O[C@H]1OC(C(=O)N[C@H]2CCCCNC2=O)=C[C@H](O)[C@@H]1O", "class": "Not met"}
{"compound": "CO[C@H]1[C@@H](O)[C@H](n2ccc(=O)[nH]c2=O)O[C@@H]1[C@H](O[C@H]1OC(C(=O)N[C@H]2CCCCNC2=O)=C[C@H](O)[C@@H]1O)C(N)=O", "class": "Not met"}
{"compound": "CO[C@H]1[C@@H](O)[C@H](n2ccc(=O)[nH]c2=O)O[C@@H]1[C@@H](O[C@H]1OC(C(=O)N[C@H]2CCCCNC2=O)=C[C@H](O)[C@@H]1O)C(N)=O [CAPURAMYCIN]", "class": "Met"}
{"compound": "O=C(N[C@H]1CCCCNC1=O)C1=C[C@H](O)[C@H](O)[C@@H](OC[C@H]2O[C@@H](n3ccc(=O)[nH]c3=O)[C@H](O)[C@@H]2O)O1", "class": "Not met"}

----------
Catalogue of MIC50 readings, one per entry.
# experiment-description: Antibacterial activity against Mycobacterium avium subsp. avium ATCC 25291 incubated for 11 days measured by microplate reader method
# Format: functional
# condition-summary: ATCC 25291, 264 h, time 11 day

{"smiles-representation": "CO[C@H]1[C@@H](O)[C@H](n2ccc(=O)[nH]c2=O)O[C@@H]1[C@H](O[C@H]1OC(C(=O)N[C@H]2CCCCNC2=O)=C[C@H](O)[C@@H]1O)C(N)=O", "MIC50": "> 32 µg/mL"}
{"smiles-representation": "CO[C@H]1[C@@H](O)[C@H](n2ccc(=O)[nH]c2=O)O[C@@H]1[C@@H](O[C@H]1OC(C(=O)N[C@H]2CCCCNC2=O)=C[C@H](O)[C@@H]1O)C(N)=O", "MIC50": "8 µg/mL"}
{"smiles-representation": "O=C(N[C@H]1CCCCNC1=O)C1=C[C@H](O)[C@H](O)[C@@H](OC[C@H]2O[C@@H](n3ccc(=O)[nH]c3=O)[C@H](O)[C@@H]2O)O1", "MIC50": "> 32 µg/mL"}
{"smiles-representation": "CO[C@H]1[C@@H](O)[C@H](n2ccc(=O)[nH]c2=O)O[C@@H]1[C@H](C#N)O[C@H]1OC(C(=O)N[C@H]2CCCCNC2=O)=C[C@H](O)[C@@H]1O", "MIC50": "> 32 µg/mL"}
{"smiles-representation": "NC(=O)[C@H](O[C@H]1OC(C(=O)N[C@H]2CCCCNC2=O)=C[C@H](O)[C@@H]1O)[C@H]1O[C@@H](n2ccc(=O)[nH]c2=O)[C@H](O)[C@@H]1O", "MIC50": "16 µg/mL"}
